Listed here are molecules together with their documented Population Membrane Permeable-Phenotype (%).
# Tested on: Fibroblast
# procedure.text: Multiplex assay against human fibroblast
# Type: toxicity, cell-based
# experimental.parameters: 48 h, 10 µM, compound concentration 10 uM, replicate 1
readout.kind: Population Membrane Permeable-Phenotype (%)

c1cc(OCCCN2CCCCC2)ccc1CN1CCCCC1; 0
CC[C@H]1OC(=O)[C@H](C)[C@@H](O[C@H]2C[C@@](C)(OC)[C@@H](O)[C@H](C)O2)[C@H](C)[C@@H](O[C@@H]2O[C@H](C)C[C@H](N(C)C)[C@H]2O)[C@@]2(C)CC(C)=C(O2)[C@H](C)[C@@H](O)[C@]1(C)O; 0
C[C@H](NC(=O)c1c(C(F)F)nn(C)c1Oc1cccc(C(F)(F)F)c1)c1ccc(C(=O)O)cc1; 1
CC1(COc2ccc3c(c2)ncn3-c2ccc3cccc(N4CCC(N)CC4)c3n2)COC1; 1

====

Listed here are compounds together with their documented Total Cell Count.
# System: HEK-293T
# procedure.text: Multiplex assay against HEK293T
# Assay type: toxicity, cell-based
# experimental.parameters: human, 48 h, 1 µM, compound concentration 1 uM, replicate 2
readout.kind: Total Cell Count

COc1ccc2c(c1)C(C(=O)N(Cc1ccc(N(C)C)cc1)c1ccc(C(C)C)cc1)CCC2.Cl (stereo not drawn); 631
CC(C)(C)c1ccc(S(=O)(=O)Nc2ccc(Cl)cc2C(=O)c2cc[n+]([O-])cc2)cc1; 877
CC1(COc2ccc3c(c2)ncn3-c2ccc3cccc(N4CCC(N)CC4)c3n2)COC1; 639

====

Listed here are compounds together with their documented Population Mitochondria Different-Phenotype (%).
# Test system: HEK-293T
# procedure.text: Multiplex assay against HEK293T
# Format: toxicity, cell-based
# experimental.parameters: human, 24 h, 10 µM, compound concentration 10 uM, replicate 1
readout.kind: Population Mitochondria Different-Phenotype (%)

CC(C)(C)c1ccc(S(=O)(=O)Nc2ccc(Cl)cc2C(=O)c2cc[n+]([O-])cc2)cc1; 15
Cc1nc2ccc(Oc3ccc(F)cc3)cc2c(=O)n1C[C@H]1CCCN(C(C)C)C1.Cl; 67
CCCC(CCC)C(=O)O; 16
CN1CCN2c3ncccc3Cc3ccccc3C2C1 (stereo unspecified); 40
COc1cc(C(=O)N(CCCc2ccccc2)Cc2ccc(CC(=O)O)cc2)cc(OC)c1C; 39
CN(C)c1ccnc2sc3c(=O)n(N4CCCCCC4)cnc3c12; 80

====

# Tested on: HEK-293T
# procedure.text: Multiplex assay against HEK293T
# Type: toxicity, cell-based
# experimental.parameters: human, 12 h, 10 µM, compound concentration 10 uM, replicate 2
Listed here are compounds together with their documented Population Mitotic Cells (%).
readout.kind: Population Mitotic Cells (%)

CCNC1(C(N)=O)CCN(c2ncnc3c2nc(-c2ccccc2Cl)n3-c2ccc(Cl)cc2)CC1 [OTENABANT]; 36%
CC1(COc2ccc3c(c2)ncn3-c2ccc3cccc(N4CCC(N)CC4)c3n2)COC1 [CRENOLANIB]; 45%
COc1ccccc1N1CCN(CCCCNC(=O)c2ccc3ccccc3c2)CC1.Cl; 29%
N[C@@]1(C(=O)O)CO[C@H]2[C@H](C(=O)O)[C@H]21 [LY-379268]; 47%
CC[C@H]1OC(=O)[C@H](C)[C@@H](O[C@H]2C[C@@](C)(OC)[C@@H](O)[C@H](C)O2)[C@H](C)[C@@H](O[C@@H]2O[C@H](C)C[C@H](N(C)C)[C@H]2O)[C@@]2(C)CC(C)=C(O2)[C@H](C)[C@@H](O)[C@]1(C)O; 43%
CCOc1c2c(c(OCC)c3ncccc13)CN(c1ccc(CS(=O)(=O)NC(=O)Cc3ccccc3OC)cc1C)C2=O; 46%
Cc1nc2ccc(Oc3ccc(F)cc3)cc2c(=O)n1C[C@H]1CCCN(C(C)C)C1.Cl; 38%
